Experiment: Oral bioavailability in Sprague-Dawley rat at 10 mg/kg measured for each 30 mins by LC-MS/MS analysis
Type: ADME, organism-based
Settings: in vivo
quantity.kind: bioavailability
# output: numeric value plus its unit

Q: // Input: COc1ccc(-c2nn(-c3cccc(NC(=O)c4cccc(C(F)(F)F)c4)c3)cc2-c2ccncc2)cc1Cl . Output its bioavailability only.
Ans: 11.3%

###

Target: Mitogen-activated protein kinase 14 (Homo sapiens)
Sequence (Q16539 whole entry): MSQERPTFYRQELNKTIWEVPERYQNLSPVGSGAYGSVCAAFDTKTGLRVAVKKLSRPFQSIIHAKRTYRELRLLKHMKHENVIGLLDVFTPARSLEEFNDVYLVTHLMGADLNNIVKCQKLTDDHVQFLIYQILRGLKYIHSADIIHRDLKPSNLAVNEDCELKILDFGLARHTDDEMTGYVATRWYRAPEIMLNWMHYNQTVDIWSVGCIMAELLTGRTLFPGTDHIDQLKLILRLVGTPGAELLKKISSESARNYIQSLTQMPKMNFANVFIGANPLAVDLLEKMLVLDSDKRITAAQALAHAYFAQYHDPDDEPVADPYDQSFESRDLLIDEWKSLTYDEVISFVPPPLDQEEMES
Experiment: Inhibition of human p38alpha using MBP as substrate by [gamma-33P]-ATP assay
quantity.kind: IC50

Q: // Input: O=C(Nc1cccc(-n2cc(-c3ccncc3)c(-c3ccc(O)c(Cl)c3)n2)c1)c1cccc(C(F)(F)F)c1 . Output its IC50 only.
Ans: > 30 µM

Q: // Input: COc1ccc(-c2nn(-c3cccc(NC(=O)c4cc(C(F)(F)F)cc(C(F)(F)F)c4)c3)cc2-c2ccncc2)cc1Cl . Output its IC50 only.
Ans: 2.33 µM

Q: // Input: O=C(Nc1cccc(-n2cc(-c3ccncc3)c(-c3ccc(O)c(Cl)c3)n2)c1)c1ccc(N2CCOCC2)c(C(F)(F)F)c1 . Output its IC50 only.
Ans: > 30 µM

Q: // Input: COc1ccc(-c2nn(-c3cccc(NC(=O)Nc4ccc(Cl)c(C(F)(F)F)c4)c3)cc2-c2ccncc2)cc1Cl . Output its IC50 only.
Ans: 8.54 µM

Q: // Input: COc1ccc(-c2nn(-c3cccc(NC(=O)Nc4cccc(C(F)(F)F)c4)c3)cc2-c2ccncc2)cc1Cl . Output its IC50 only.
Ans: 12.2 µM

Q: // Input: O=C(Nc1ccccc1)Nc1cccc(-n2cc(-c3ccncc3)c(-c3ccc(O)c(Cl)c3)n2)c1 . Output its IC50 only.
Ans: > 30 µM
